Sourced from the supplement of paper PMC10567573

B1: FCHO1 (parent)
chain: FSDPSQSDPETKDFWLNMAALTEA

variants of: B1; test: protein stability index of a GFP-peptide fusion (GPS, HEK-293T) (PSI 1-6); higher = more stable; settings: c terminus: a fixed tail appended;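 further: lentivirally expressed fusions sorted by FACS into six bins by GFP to DsRed ratio, PSI derived from sequencing read proportions per bin multiplied by bin number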
Please enter yes where protein stability index is greater than or equal to 3, and no where it is lower.

protein stability index >= 3 for D3S ? no

protein stability index >= 3 for L16N ? yes

protein stability index >= 3 for F1A ? yes

protein stability index >= 3 for E10L ? no

protein stability index >= 3 for F1R ? yes

protein stability index >= 3 for S2D ? yes

protein stability index >= 3 for E23G ? no

protein stability index >= 3 for S7E ? yes

protein stability index >= 3 for D8V ? yes

protein stability index >= 3 for N17E ? yes

protein stability index >= 3 for L16H ? no

protein stability index >= 3 for D13S ? no

protein stability index >= 3 for N17M ? no

protein stability index >= 3 for L21Y ? no

protein stability index >= 3 for A24K ? yes

protein stability index >= 3 for W15K ? yes

protein stability index >= 3 for E23D ? no

protein stability index >= 3 for K12I ? yes

protein stability index >= 3 for W15Q ? yes

protein stability index >= 3 for F1Y ? yes

protein stability index >= 3 for E10Y ? no

protein stability index >= 3 for D3R ? no

protein stability index >= 3 for T22L ? no

protein stability index >= 3 for D13C ? no

protein stability index >= 3 for N17G ? no

protein stability index >= 3 for P4S ? no

protein stability index >= 3 for Q6D ? yes

protein stability index >= 3 for E10A ? no

protein stability index >= 3 for P4G ? no

protein stability index >= 3 for L16T ? no

protein stability index >= 3 for D3T ? no

protein stability index >= 3 for S2N ? no

protein stability index >= 3 for W15C ? yes

protein stability index >= 3 for W15F ? yes

protein stability index >= 3 for K12A ? yes

protein stability index >= 3 for A19C ? no

protein stability index >= 3 for S2E ? yes

protein stability index >= 3 for P9M ? yes

protein stability index >= 3 for Q6V ? no

protein stability index >= 3 for Q6F ? no

protein stability index >= 3 for P4I ? yes

protein stability index >= 3 for A19Y ? no

protein stability index >= 3 for A24I ? no
